# TESTED_TARGET: cGMP-specific 3',5'-cyclic phosphodiesterase (Homo sapiens, UniProt O76074)
MEASURED_ENDPOINT: IC50 (nM)
Please state the figure in nM; there is no need to write the unit.

IC50 measured on `COC(=O)c1c(-c2cc(OC)c(OC)c(OC)c2)c2ccc(OCc3ccccn3)cc2c(=O)n1-c1ccc(N)cc1` = 1

====

# TEST_NAME: Selectivity index, ratio of IC50 for light activated bovine retina PDE6 to IC50 for canine lung PDE5
MEASURED_ENDPOINT: Ratio IC50
Answer using only a numeral; do not append any unit.

Please review the following examples before continuing.
In [3]: df
Out[3]:
                                   compound  measured_endpoint  value
0  COc1ccc(CNc2nc(N3CCCCC3)ncc2C(=O)c2cc(OC)c(OC)c(OC)c2)cc1Cl         Ratio IC50   2000
1  COc1ccc(CNc2nc(N3CCOC(CO)C3)ncc2C(=O)c2cc(OC)c(OC)c(OC)c2)cc1Cl (stereo not given)         Ratio IC50   2800

Sure, the documented Ratio IC50 for `COc1ccc(CNc2nc(OCc3ccccc3)ncc2C(=O)c2cc(OC)c(OC)c(OC)c2)cc1Cl` is 1600

The compound `COc1ccc(CNc2nc(N3CCc4ccccc4C3)ncc2C(=O)c2cc(OC)c(OC)c(OC)c2)cc1Cl` showed Ratio IC50 equal to 3200

Looking up `COc1ccc(CNc2nc(OCc3ccccn3)ncc2C(=O)c2cc(OC)c(OC)c(OC)c2)cc1Cl` , I found its Ratio IC50 recorded as 2400

The measured Ratio IC50 associated with `COc1ccc(CNc2nc(OCc3ncccn3)ncc2C(=O)c2cc(OC)c(OC)c(OC)c2)cc1Cl` reads 560

Record summary for `COCCOc1ncc(C(=O)c2cc(OC)c(OC)c(OC)c2)c(NCc2ccc(OC)c(Cl)c2)n1` : reported Ratio IC50 = 2200

Field Ratio IC50 (entry `COc1ccc(CNc2nc(N3CCOCC3)ncc2C(=O)c2cc(OC)c(OC)c(OC)c2)cc1Cl` ) reads 6700

Lookup result for `COc1ccc(CNc2cc(OCc3ccccn3)ccc2C(=O)c2cc(OC)c(OC)c(OC)c2)cc1Cl` ; measured Ratio IC50: 18000

====

What follows is a record of pIC50 for cGMP-specific 3',5'-cyclic phosphodiesterase (Canis lupus familiaris, UniProt O77746).
Schema: pIC50 number; meaning minus log10 of the concentration expressed in molar units.

>>> print(df.to_string())
                                 smiles_str  value
0  COC(=O)c1nc(NCc2ccc(OC)c(Cl)c2)c2cc(OCc3ccccc3)ccc2c1-c1cc(OC)c(OC)c(OC)c1   8.46

Bench note, cGMP-specific 3',5'-cyclic phosphodiesterase (Canis lupus familiaris, UniProt O77746): entry `COc1ccc(CNc2cc(OCc3ccccn3)ccc2C(=O)c2cc(OC)c(OC)c(OC)c2)cc1Cl` , its pIC50 = 9.18

Form field, pIC50 with cGMP-specific 3',5'-cyclic phosphodiesterase (Canis lupus familiaris, UniProt O77746), item `COc1ccc(CNc2nc(OCc3ccccc3)ncc2C(=O)c2cc(OC)c(OC)c(OC)c2)cc1Cl` : 9.42

Field pIC50 (system: cGMP-specific 3',5'-cyclic phosphodiesterase (Canis lupus familiaris, UniProt O77746)) for entry `COc1ccc(CNc2nc(N3CCc4ccccc4C3)ncc2C(=O)c2cc(OC)c(OC)c(OC)c2)cc1Cl` = 10.28

Bench note, cGMP-specific 3',5'-cyclic phosphodiesterase (Canis lupus familiaris, UniProt O77746): `COc1ccc(CNc2nc(OCc3ccccn3)ncc2C(=O)c2cc(OC)c(OC)c(OC)c2)cc1Cl` , pIC50 reads 9.89

Response field pIC50 (cGMP-specific 3',5'-cyclic phosphodiesterase (Canis lupus familiaris, UniProt O77746)) for item `COC(=O)c1ncc2cc(OCc3ccccn3)ccc2c1-c1cc(OC)c(OC)c(OC)c1` : 7.47

Here `COc1ccc(CNc2nc(OCc3ncccn3)ncc2C(=O)c2cc(OC)c(OC)c(OC)c2)cc1Cl` was tested on cGMP-specific 3',5'-cyclic phosphodiesterase (Canis lupus familiaris, UniProt O77746), and its pIC50 came to 8.47

Measured pIC50 for this entry `COc1ccc(CNc2nc(N3CCCCC3)ncc2C(=O)c2cc(OC)c(OC)c(OC)c2)cc1Cl` on cGMP-specific 3',5'-cyclic phosphodiesterase (Canis lupus familiaris, UniProt O77746): 9.13

All values here come from ChEMBL document CHEMBL3352246.
